Numbers sourced from a melting point compilation (Tetko et al.; mined from patent text by program, amines drawn as free bases though some values may be those of a salt).

Measure: melting point

Incoming: melting point for "CNc1cccc2c(=O)c(C)c(-c3ccccc3)oc12" ?
Outgoing: 143 to 146 °C

Incoming: Same read-out for CC(C)(C)OC(=O)CN1C(=O)C(NC(=O)Nc2cccc(Cl)c2)CC(c2ccccc2)CC1Cc1ccccc1 (centres undefined) ?
Outgoing: 95 to 110 °C

Incoming: Same read-out for "CC1(c2ccc(F)c(S(N)(=O)=O)c2)OCCO1" ?
Outgoing: 149 to 150 °C

Incoming: Same read-out for "CNS(=O)(=O)c1cc(C(=O)c2c(C)oc3ccccc23)ccc1Cl" ?
Outgoing: 146 °C

====

Measure: melting point

Nc1nc2ccccc2c2c1ncn2CCOCCCc1ccncc1 ... 160 to 162 °C

Incoming: melting point for "CCCCc1nc(SC)c[nH]1" ?
Outgoing: 64 °C

Incoming: Same read-out for "O=Cc1cn([C@H]2CCc3c(F)cc(F)cc3C2)c(=S)[nH]1" ?
Outgoing: > 285 °C

Incoming: Same read-out for "CCCCCCSc1nn2c(=O)cc(Cl)nc2s1" ?
Outgoing: 95 to 96 °C
